# assay-comment: Selectivity index, ratio of IC50 for Torpedo californica AChE to IC50 for equine serum BChE
Listed below: Ratio IC50 values for each entry.

| mol | Ratio IC50 |
| --- | --- |
| Cc1cccc(C[n+]2ccc(Cn3c4c(c5ccccc53)CCCC4)cc2)c1 | 21.2 |
| Cc1cccc(C[n+]2cccc(Cn3c4c(c5ccccc53)CCCC4)c2)c1 | 153 |
| O=C1c2ccccc2C(=O)N1Cc1cc[n+](Cc2ccccc2F)cc1 | 11.3 |
| Fc1cccc(C[n+]2cccc(Cn3c4c(c5ccccc53)CCCC4)c2)c1 | 138 |
| c1ccc(C[n+]2ccc(Cn3c4c(c5ccccc53)CCCC4)cc2)cc1 | 62.6 |
| Cc1ccccc1C[n+]1ccc(Cn2c3c(c4ccccc42)CCCC3)cc1 | 21 |
| Cc1ccccc1C[n+]1cccc(Cn2c3c(c4ccccc42)CCCC3)c1 | 124 |
| Cc1ccc(C[n+]2cccc(Cn3c4c(c5ccccc53)CCCC4)c2)cc1 | 181 |
| Clc1ccc(C[n+]2ccc(Cn3c4c(c5ccccc53)CCCC4)cc2)cc1 | 12.2 |
| Clc1ccccc1C[n+]1ccc(Cn2c3c(c4ccccc42)CCCC3)cc1 | 22.4 |
| Clc1ccccc1C[n+]1cccc(Cn2c3c(c4ccccc42)CCCC3)c1 | 180 |
| Fc1ccc(C[n+]2cccc(Cn3c4c(c5ccccc53)CCCC4)c2)cc1 | 138 |
| Clc1cccc(C[n+]2cccc(Cn3c4c(c5ccccc53)CCCC4)c2)c1 | 120 |
| Fc1cccc(C[n+]2ccc(Cn3c4c(c5ccccc53)CCCC4)cc2)c1 | 35 |
| Clc1ccc(C[n+]2cccc(Cn3c4c(c5ccccc53)CCCC4)c2)cc1 | 124 |
| Clc1cccc(C[n+]2ccc(Cn3c4c(c5ccccc53)CCCC4)cc2)c1 | 18.5 |
| Fc1ccccc1C[n+]1ccc(Cn2c3c(c4ccccc42)CCCC3)cc1 | 47.6 |
| Cc1ccc(C[n+]2ccc(Cn3c4c(c5ccccc53)CCCC4)cc2)cc1 | 20 |
| Fc1ccc(C[n+]2ccc(Cn3c4c(c5ccccc53)CCCC4)cc2)cc1 | 44.9 |
| Fc1ccccc1C[n+]1cccc(Cn2c3c(c4ccccc42)CCCC3)c1 | 133 |
| O=C1CCC(=O)N1Cc1cc[n+](Cc2cccc(F)c2)cc1 | 6.34 |
| c1ccc(C[n+]2cccc(Cn3c4c(c5ccccc53)CCCC4)c2)cc1 | 126 |
